Hello, the source for this data is paper PMC4551797, in case you need it.

biological target: GPR119 (Homo sapiens); assay: Selectivity: enteroendocrine GPCR GPR119
Sequence (Q8TDV5 whole entry, species assumed): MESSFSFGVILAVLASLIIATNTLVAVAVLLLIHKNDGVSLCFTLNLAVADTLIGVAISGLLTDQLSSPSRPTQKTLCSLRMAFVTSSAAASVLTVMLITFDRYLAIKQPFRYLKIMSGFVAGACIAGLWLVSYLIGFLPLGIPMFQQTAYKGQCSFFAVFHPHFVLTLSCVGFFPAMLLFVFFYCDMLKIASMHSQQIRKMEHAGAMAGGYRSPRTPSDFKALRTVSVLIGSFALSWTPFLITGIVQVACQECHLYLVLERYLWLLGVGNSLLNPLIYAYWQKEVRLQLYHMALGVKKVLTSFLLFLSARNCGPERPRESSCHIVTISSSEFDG
metric: EC50

Request body: readout EC50, system GPR119 (Homo sapiens), query CC(=O)N1CCC(C(C)N(C(=O)COc2cccc3sc4nc(C)cn4c23)c2ccc(F)cc2)CC1 (stereo not shown) [compound 18] . Return the value.
> 125 µM

====

target: GPR120 (Homo sapiens); assay: Selectivity: enteroendocrine GPCR GPR120
Sequence (Q5NUL3 whole entry, species assumed): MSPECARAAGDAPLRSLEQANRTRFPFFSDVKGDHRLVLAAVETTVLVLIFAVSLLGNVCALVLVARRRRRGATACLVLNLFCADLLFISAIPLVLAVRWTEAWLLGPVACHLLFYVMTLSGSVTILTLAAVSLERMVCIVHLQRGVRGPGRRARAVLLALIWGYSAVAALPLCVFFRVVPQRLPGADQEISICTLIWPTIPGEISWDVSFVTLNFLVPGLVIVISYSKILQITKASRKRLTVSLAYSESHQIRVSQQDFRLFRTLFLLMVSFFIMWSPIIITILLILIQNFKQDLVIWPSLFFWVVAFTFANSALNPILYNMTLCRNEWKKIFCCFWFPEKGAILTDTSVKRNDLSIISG
pEC50: −log10 of the molar value.
metric: pEC50

Quick check: pEC50 of CC(=O)N1CCC(C(C)N(C(=O)COc2cccc3sc4nc(C)cn4c23)c2ccc(F)cc2)CC1 (stereo not shown) ?
< 3.90

====

Target: mouse TGR5 (Mus musculus)
Sequence (Q80SS6 1-329): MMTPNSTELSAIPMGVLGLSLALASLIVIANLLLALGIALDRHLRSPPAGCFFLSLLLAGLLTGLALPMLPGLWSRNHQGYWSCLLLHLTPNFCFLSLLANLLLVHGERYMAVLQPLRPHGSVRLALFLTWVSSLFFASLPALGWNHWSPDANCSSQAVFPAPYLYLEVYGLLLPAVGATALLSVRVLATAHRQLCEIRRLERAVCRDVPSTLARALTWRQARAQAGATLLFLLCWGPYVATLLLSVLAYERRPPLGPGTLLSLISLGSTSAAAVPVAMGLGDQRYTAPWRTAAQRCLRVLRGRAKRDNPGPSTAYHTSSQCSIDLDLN
Assay: cAMP production in HEK-293 cells stably transfected with the mouse TGR5 gene (HTRF cAMP assay)
Assay type: cell-based
Design: expressed in transfected cells
Conditions: cAMP; unit inferred, x-axis in nM; read-out: EC50 HEK-293-mTGR5 (Fig 2B inset)
Procedure: HEK-293 cells were obtained from ATCC and a clonal HEK-293 line overexpressing mouse TGR5 was prepared. Both were maintained in Dulbecco’s modified Eagle’s medium (DMEM) containing 10% fetal bovine serum (FBS) and penicillin /streptomycin. […] After 72 hours, cAMP production stimulated with TGR5 agonists was measured using HTRF cAMP assay kit (CISBIO). The level of cAMP in suspensions of STC-1 cells stimulated with increasing concentrations of TGR5 agonists was also determined. […]
metric: EC50 (nM)
Hi! Could you send only the number? It should be in nM, unit omitted.

Quick check: EC50 of CC(=O)N1CCC(C(C)N(C(=O)COc2cccc3sc4nc(C)cn4c23)c2ccc(F)cc2)CC1 (stereo not shown) ?
24.7

====

assay: Plasma compound levels after oral dosing (LC-MS/MS); details: C57BL/6, mouse, 10 mg/kg
metric: Cmax (nM)
Hi! Could you send only the number? It should be in nM, unit omitted.

Quick check: Cmax of CC(=O)N1CCC(C(C)N(C(=O)COc2cccc3sc4nc(C)cn4c23)c2ccc(F)cc2)CC1 (stereo not shown) ?
348

====

assay: Plasma compound levels after oral dosing (LC-MS/MS); conditions: C57BL/6, mouse, 30 mg/kg
metric: AUC(0-t) (µM·h)
Hi! Could you send only the number? It should be in µM·h, unit omitted.

Quick check: AUC(0-t) of CC(=O)N1CCC(C(C)N(C(=O)COc2cccc3sc4nc(C)cn4c23)c2ccc(F)cc2)CC1 (stereo not shown) [compound 18] ?
1.52

====

Target: human TGR5 receptor (Homo sapiens, UniProt Q8TDU6)
Construct: in cells with endogenous levels of receptor
Sequence (Q8TDU6 1-330): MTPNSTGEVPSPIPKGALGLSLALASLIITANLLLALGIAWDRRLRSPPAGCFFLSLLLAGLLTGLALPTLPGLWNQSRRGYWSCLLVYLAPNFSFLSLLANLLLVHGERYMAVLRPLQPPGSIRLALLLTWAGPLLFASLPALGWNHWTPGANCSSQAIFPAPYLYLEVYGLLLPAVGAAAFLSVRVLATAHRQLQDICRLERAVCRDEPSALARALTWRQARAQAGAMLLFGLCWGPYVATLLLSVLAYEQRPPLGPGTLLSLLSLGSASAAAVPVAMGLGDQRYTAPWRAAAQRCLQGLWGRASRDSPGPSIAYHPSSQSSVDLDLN
Assay: cAMP production in NCI-H716 enteroendocrine cells (endogenous TGR5)
metric: EC50 (µM)
Hi! Could you send only the number? It should be in µM, unit omitted.

Quick check: EC50 of CC(=O)N1CCC(C(C)N(C(=O)COc2cccc3sc4nc(C)cn4c23)c2ccc(F)cc2)CC1 (stereo not shown) [compound 18] ?
3.1
